Tested on: MALME-3M melanoma
assay.remarks: NCI tumour cell line growth inhibition, 48 h; in the data active = GI50 below about 0.43 µM; inactive = the rest
Classes used: TRUE for active, FALSE for inactive

> print(dat)
                                    compound  answer.label
 1  CCC(C)CC(C)C(=O)c1c(O)ccn(O)c1=O (stereo not given)         FALSE
 2  CCN(CC)CC(O)COc1c(Br)c(Br)c(Br)c2c1OC(C)(C)C2 (stereo not given)         FALSE
 3  NCCCNc1nc2ccc(Cl)cc2c2c(=O)c3cc(F)ccc3sc12         FALSE
 4  FC(F)(F)c1ccc(-c2ncc(-c3ccc(C(F)(F)F)cc3)c(NCc3cc(C(F)(F)F)cc(C(F)(F)F)c3)n2)cc1         FALSE
 5  COc1cc(/C=C/C(=O)c2ccc(F)cc2)ccc1OCCCCCOc1cc2c(cc1OC)C(=O)N1CCCC1C=N2 (stereo not given)          TRUE
 6  O=C([O-])CCc1ccccc1.O=C([O-])CCc1ccccc1.O=C([O-])CCc1ccccc1.O=C([O-])CCc1ccccc1.[Mo+2].[Mo+2]         FALSE
 7  CCCCCCc1cc2cc(-c3csc(/C=C/c4ccccc4)n3)c(=O)oc2cc1O         FALSE
 8  O=C(O)c1ccc(C(=O)O)c(C(=O)O)c1.[NH-]C1CCCCC1[NH-].[Pt+2]         FALSE
 9  C/C(=N\O)c1cccc(Nc2cc(-c3ccccc3)nc3c(O)cccc23)c1         FALSE
10  O=c1[nH]c(F)nc2c1ncn2C1OC(CO)C(O)C1O (stereo not given)         FALSE
